Assay: Inhibition of glutaminase (unknown origin) preincubated for 60 mins
Parameters: species or system Homo sapiens
Each entry below lists one item and its recorded IC50 value.

ENTRY_SMILES: O=C(Cc1ccccc1)Nc1nnc(CSCc2nnc(NC(=O)Cc3ccccc3)s2)s1
PARAMETER_MEASURED: IC50
RECORDED_RESULT: > 20 µM

Data request: Hello, please tell me recorded IC50 for this one: `O=C(Cc1ccccc1)Nc1nnc([C@H]2CCC[C@H](c3nnc(NC(=O)Cc4ccccc4)s3)C2)s1`
Data returned: < 0.1 µM

----------
Target: Glutaminase kidney isoform, mitochondrial (Homo sapiens)
Sequence (O94925 whole entry): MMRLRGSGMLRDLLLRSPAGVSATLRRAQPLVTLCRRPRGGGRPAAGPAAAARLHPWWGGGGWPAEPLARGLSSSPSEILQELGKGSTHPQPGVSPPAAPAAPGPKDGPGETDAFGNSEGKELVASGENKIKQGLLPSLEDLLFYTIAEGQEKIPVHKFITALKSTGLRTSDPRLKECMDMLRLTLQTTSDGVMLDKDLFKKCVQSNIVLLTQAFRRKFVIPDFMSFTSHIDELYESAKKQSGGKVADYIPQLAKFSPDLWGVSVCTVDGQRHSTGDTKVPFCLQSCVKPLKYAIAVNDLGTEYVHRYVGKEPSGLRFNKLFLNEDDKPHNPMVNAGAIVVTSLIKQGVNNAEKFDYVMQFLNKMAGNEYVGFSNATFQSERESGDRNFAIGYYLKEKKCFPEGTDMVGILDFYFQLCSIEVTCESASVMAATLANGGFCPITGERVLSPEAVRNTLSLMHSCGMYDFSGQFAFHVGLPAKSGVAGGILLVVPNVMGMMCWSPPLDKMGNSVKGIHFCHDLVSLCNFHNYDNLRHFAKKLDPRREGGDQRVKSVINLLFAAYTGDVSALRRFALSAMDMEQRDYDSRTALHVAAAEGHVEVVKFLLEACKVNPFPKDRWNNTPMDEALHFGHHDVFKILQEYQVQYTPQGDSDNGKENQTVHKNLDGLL
Test: Allosteric inhibition of human kidney glutaminase using [3H]-Glutamine as substrate in presence of inhibitor incubated for 45 mins by Perkin Elmer based assay
PARAMETER_MEASURED: IC50 (nM)

ENTRY_SMILES: CN(C)c1ccc(CC(=O)Nc2nnc(CCSc3nnc(NC(=O)Cc4ccccc4)s3)s2)cc1
UNITS_LABEL: nM
IC50: 200

[A] O=C(Cc1ccccc1)Nc1ccc(CCSc2nnc(NC(=O)Cc3ccccc3)s2)nn1
[B] Nc1nnc(CCSc2nnc(NC(=O)Cc3ccccc3)s2)s1
[C] O=C(Cc1cccc(OC(F)(F)F)c1)Nc1nnc(CCSc2nnc(NC(=O)Cc3ccccc3)s2)s1
Data request: Number of compounds to sort: 3. Sort criterion: IC50, ascending. Return the labels ranked in the requested order, please.
Data returned: A, C, B
(A: 30 nM, C: 140 nM, B: 1600 nM)

----------
Assay: Inhibition of human recombinant glutaminase assessed as reduction in glutamate production in presence of NADPH-dependent glutamate dehydrogenase preincubated 60 mins by coupled biochemical assay
pIC50: −log10 of the molar value.
PARAMETER_MEASURED: pIC50

Data request: Complete the entry with pIC50 for `O=C(Cc1cccc(OC(F)(F)F)c1)Nc1ccc(CCCCc2nnc(NC(=O)Cc3ccccn3)s2)nn1`
Data returned: > 7.30

----------
Target: Glutaminase kidney isoform, mitochondrial (Homo sapiens)
Test: Allosteric inhibition of human kidney glutaminase using [3H]-Glutamine as substrate in presence of inhibitor incubated for 45 mins by Perkin Elmer based assay
PARAMETER_MEASURED: IC50 (nM)

Example entries begin here.
COMPOUND: O=C(Cc1ccccc1)Nc1nnc(CCSc2nnc(NC(=O)Cc3ccccc3)s2)s1
STUDY_TARGET: Glutaminase kidney isoform, mitochondrial (Homo sapiens)
RECORDED_RESULT: 50
//
COMPOUND: Nc1nnc(SCCc2nnc(NC(=O)Cc3ccccc3)s2)s1
STUDY_TARGET: Glutaminase kidney isoform, mitochondrial (Homo sapiens)
RECORDED_RESULT: 3000
//
COMPOUND: Nc1nnc(CCSc2ccc(NC(=O)Cc3ccccc3)nn2)s1
STUDY_TARGET: Glutaminase kidney isoform, mitochondrial (Homo sapiens)
RECORDED_RESULT: 14000

[I] O=C(Cc1ccccc1)Nc1nnc([C@H]2CCC[C@H](c3nnc(NC(=O)Cc4ccccc4)s3)C2)s1 (racemic)
[II] O=C(Cc1ccccc1)Nc1nnc(CCSc2nnc(NC(=O)Cc3ccccn3)s2)s1
Data request: Recorded IC50 values differ for I and II ; which one is higher? Respond with the label that goes with your answer.
Data returned: I

[1] Nc1nnc(SCCc2ccc(NC(=O)Cc3ccccc3)nn2)s1
[2] O=C(Cc1ccccn1)Nc1nnc(CCSc2nnc(NC(=O)Cc3ccccc3)s2)s1
Data request: Which value of IC50 is smaller, the one for 1 or the one for 2 ? Return value: the label identifying the chosen record.
Data returned: 2
(2: 110 nM, 1: 6800 nM)
